Test: Half life in simulated gastric fluid at 20 uM by LC-MS/MS analysis
Type: ADME
*1 amine or outer side, *2 acyl side, *3 side chain or, on linkers, in order; H or OH if unused. Where a SMILES comes first, the peptide text is derived from it. Bridges are numbered along the chain shown (N, C = ends). [ ]: non-standard residue; d: D form. Abu(4-yl) = O=C([C@H](CC[*:3])N[*:1])[*:2]; 2Nal = N[C@@H](Cc1ccc2ccccc2c1)C(=O)O; αMeK = C[C@](N)(CCCCN)C(=O)O
recorded_endpoint: half-life at 20 µM

Some compounds with recorded half-life at 20 µM:
>>> observed("CC(=O)NCCCC[C@H](NC(=O)C(C)(C)NC(=O)[C@H](Cc1ccc2ccccc2c1)NC(=O)[C@H](Cc1ccc(OCCN)cc1)NC(=O)[C@@H](NC(=O)[C@H](CCC(N)=O)NC(=O)[C@H](Cc1c[nH]c2ccccc12)NC(=O)[C@@H](NC(=O)[C@H](CCC(N)=O)NC(=O)[C@@H](NC(C)=O)C(C)(C)S)[C@@H](C)O)C(C)(C)S)C(=O)N[C@@H](CC(N)=O)C(=O)N[C@@H](CC(N)=O)C(N)=O")
"3 to 6 h"
>>> observed("CC(=O)NCCCC[C@H](NC(=O)C(C)(C)NC(=O)[C@H](Cc1cccc2ccccc12)NC(=O)[C@H](Cc1ccc(OCCN)cc1)NC(=O)[C@@H]1CSCC[C@H](NC(C)=O)C(=O)N[C@@H](CCC(N)=O)C(=O)N[C@@H]([C@@H](C)O)C(=O)N[C@@H](Cc2c[nH]c3ccccc23)C(=O)N[C@@H](CCC(N)=O)C(=O)N1)C(=O)N[C@@H](CC(N)=O)C(=O)NCC(N)=O")
"> 6 h"

Returns the measured half-life at 20 µM for the input compound. Input: CC(=O)N[C@H]1CCSC[C@@H](C(=O)N[C@@H](Cc2ccc3ccccc3c2)C(=O)N[C@@H](Cc2ccc3ccccc3c2)C(=O)N[C@@](C)(CCCCN)C(=O)N[C@@H](CCC(=O)O)C(=O)N[C@@H](CC(N)=O)C(=O)NCC(N)=O)NC(=O)[C@H](CCC(N)=O)NC(=O)[C@H](Cc2c[nH]c3ccccc23)NC(=O)[C@H]([C@@H](C)O)NC(=O)[C@H](CCC(N)=O)NC1=O (Ac-[Abu(4-yl)]QTWQC[2Nal][2Nal][αMeK]ENG-NH2; thioether 1-6) < 1 h

Every entry's value here was drawn from ChEMBL document CHEMBL4417631.
